Assay: Probe fluorescence ratio response to arachidonic acid relative to ADIFAB2
Type: binding
Details: arachidonic acid; response relative to ADIFAB2
The reader will find reported DR/DR AA values listed item by item below.
I'd appreciate a reply containing only the number, no unit.

Known DR/DR AA results, listed for orientation:
106F, 72A (protein, listed as Rattus norvegicus, PEPTIDE (1)...(131) wild-type rat intestinal fatty acid binding protein) AFDGTWKVDRNENYEKFMEKMGINVVKRKLGAHDNLKLTITQEGNKFTVKESSNFRNIDVVFELGVDFAYSAADGTELTGTWTMEGNKLVGKFKRVDNGKELIAVFEISGNELIQTYTYEGVEAKRIFKKE
0.754
18Q, 72A (protein, listed as Rattus norvegicus, PEPTIDE (1)...(131) wild-type rat intestinal fatty acid binding protein) AFDGTWKVDRNENYEKFQEKMGINVVKRKLGAHDNLKLTITQEGNKFTVKESSNFRNIDVVFELGVDFAYSAADGTELTGTWTMEGNKLVGKFKRVDNGKELIAVREISGNELIQTYTYEGVEAKRIFKKE
0.09

With those in mind, consider the next molecule.
Fill in: DR/DR AA of 70H, 72A (protein, listed as Rattus norvegicus, PEPTIDE (1)...(131) wild-type rat intestinal fatty acid binding protein) AFDGTWKVDRNENYEKFMEKMGINVVKRKLGAHDNLKLTITQEGNKFTVKESSNFRNIDVVFELGVDFAHSAADGTELTGTWTMEGNKLVGKFKRVDNGKELIAVREISGNELIQTYTYEGVEAKRIFKKE is ___
0.751
